Origin of values: patent US20160120863A1

Molecular target: human GLUT1 (Homo sapiens)
Construct: expressed in transfected cells
Sequence (P11166 whole entry): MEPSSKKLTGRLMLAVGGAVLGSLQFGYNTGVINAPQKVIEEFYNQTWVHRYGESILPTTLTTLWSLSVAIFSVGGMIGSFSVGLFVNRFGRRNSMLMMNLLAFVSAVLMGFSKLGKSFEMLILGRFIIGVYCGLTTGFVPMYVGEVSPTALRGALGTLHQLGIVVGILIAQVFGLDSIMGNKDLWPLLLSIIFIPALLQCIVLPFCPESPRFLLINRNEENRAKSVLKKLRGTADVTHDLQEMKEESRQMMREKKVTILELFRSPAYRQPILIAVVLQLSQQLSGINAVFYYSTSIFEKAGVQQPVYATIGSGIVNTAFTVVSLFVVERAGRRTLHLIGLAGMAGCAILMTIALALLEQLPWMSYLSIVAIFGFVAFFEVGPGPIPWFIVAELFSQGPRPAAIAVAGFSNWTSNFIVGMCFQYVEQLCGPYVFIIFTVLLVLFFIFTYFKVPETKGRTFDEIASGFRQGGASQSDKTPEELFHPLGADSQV
Assay: [3H]-deoxy-D-glucose uptake assay, GLUT1
Type: cell-based
Conditions: [3H]-deoxy-D-glucose uptake in HEK293 cells stably expressing human GLUT1
PROPERTY: GLUT1 pIC50

Study these solved cases before continuing.
* O=C(C1COC1)N1CCN(Cc2c(-c3ccc(Cl)cc3Cl)nc3ccc(-c4ncon4)cn23)CC1 | +++ (pIC50 ≧ 6.00)
* O=C(c1cncs1)N1CCN(Cc2c(-c3ccc(Cl)cc3)nc3ccc(-c4ccccc4)cn23)CC1 | +++ (pIC50 ≧ 6.00)
* CC(=O)N1CCN(Cc2c(-c3ccc(Cl)cc3)nc3ccc(S(=O)(=O)C(C)C)cn23)CC1 | +++ (pIC50 ≧ 6.00)
* Clc1ccc(-c2nc3cnc(C4CC4)cn3c2CN2CCOCC2)cc1 | +++ (pIC50 ≧ 6.00)
* COc1ccc(NC(=O)N2CCN(Cc3c(-c4ccc(Cl)cc4)nc4ccc(-c5ccccc5)cn34)CC2)cc1 | + (pIC50 4.00-4.99)
* CN(c1ccc2nc(-c3ccc(Cl)cc3)c(CN3CCNC(=O)C3)n2c1)S(C)(=O)=O | +++ (pIC50 ≧ 6.00)

Now consider a different compound.
Qu. Endpoint output: GLUT1 pIC50 of Clc1ccc(-c2nc3ccc(Cl)cn3c2CN2CCSCC2)cc1 . Value?
Ans. + (pIC50 4.00-4.99)
